Tested on: 349418-098-R-PDC spheroids, viability, % test/control;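 further: spheroids exposed to compounds for 7 days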
Test: Anticancer human tumor 349418-098-R-PDC patient-derived lung adenocarcinoma cell line growth inhibition [IpAb]
Details: second compound 1 µM; first compound 0.1 µM; hits give low values; spheroids with HUVEC and MSC
Please use the following viability, T/C ranges when assigning a class: b0 (below 10%), b1 (10% to below 20%), b2 (20% or more)

Query string: Returns: class label. Input: Cn1ncc(Cl)c1-c1cc(C(=O)NC(CN)Cc2cccc(F)c2)sc1Cl (configuration not stated) + CCN1CCN(Cc2ccc(Nc3ncc(F)c(-c4cc(F)c5nc(C)n(C(C)C)c5c4)n3)nc2)CC1
Result string: b1

Query string: Returns: class label. Input: CC1(C)CCC(CN2CCN(c3ccc(C(=O)NS(=O)(=O)c4ccc(NCC5CCOCC5)c([N+](=O)[O-])c4)c(Oc4cnc5[nH]ccc5c4)c3)CC2)=C(c2ccc(Cl)cc2)C1 + CCN1CCN(Cc2ccc(Nc3ncc(F)c(-c4cc(F)c5nc(C)n(C(C)C)c5c4)n3)nc2)CC1
Result string: b1

Query string: Returns: class label. Input: C=CC(=O)N1CCN(c2nc(=O)n(-c3c(C)ccnc3C(C)C)c3nc(-c4c(O)cccc4F)c(F)cc23)C(C)C1 (configuration not stated) + CCN1CCN(Cc2ccc(Nc3ncc(F)c(-c4cc(F)c5nc(C)n(C(C)C)c5c4)n3)nc2)CC1
Result string: b2

Query string: Returns: class label. Input: C=CCn1c(=O)c2cnc(Nc3ccc(N4CCN(C)CC4)cc3)nc2n1-c1cccc(C(C)(C)O)n1 + CCN1CCN(Cc2ccc(Nc3ncc(F)c(-c4cc(F)c5nc(C)n(C(C)C)c5c4)n3)nc2)CC1
Result string: b1

Query string: Returns: class label. Input: Cn1nccc1Nc1nccc(-c2ccn(C(CO)c3ccc(Cl)c(F)c3)c(=O)c2)n1 (configuration not stated) + CC(C)NCC(C(=O)N1CCN(c2ncnc3c2C(C)CC3O)CC1)c1ccc(Cl)cc1
Result string: b1

Query string: Returns: class label. Input: CC(C)n1nc(-c2ccc3oc(N)nc3c2)c2c(N)ncnc21 + CCN1CCN(Cc2ccc(Nc3ncc(F)c(-c4cc(F)c5nc(C)n(C(C)C)c5c4)n3)nc2)CC1
Result string: b0

Query string: Returns: class label. Input: Cn1ncnc1[C@H]1c2n[nH]c(=O)c3cc(F)cc(c23)N[C@@H]1c1ccc(F)cc1 + CCN1CCN(Cc2ccc(Nc3ncc(F)c(-c4cc(F)c5nc(C)n(C(C)C)c5c4)n3)nc2)CC1
Result string: b1

Query string: Returns: class label. Input: Cn1ncc(Cl)c1-c1cc(C(=O)NC(CN)Cc2cccc(F)c2)sc1Cl (configuration not stated) + CC(C)NCC(C(=O)N1CCN(c2ncnc3c2C(C)CC3O)CC1)c1ccc(Cl)cc1
Result string: b2

Query string: Returns: class label. Input: COc1c(OCCCN2CCOCC2)ccc2c3n(c(=NC(=O)c4cnc(N)nc4)nc12)CCN3 + CCN1CCN(Cc2ccc(Nc3ncc(F)c(-c4cc(F)c5nc(C)n(C(C)C)c5c4)n3)nc2)CC1
Result string: b0

Query string: Returns: class label. Input: Cn1ncnc1[C@H]1c2n[nH]c(=O)c3cc(F)cc(c23)N[C@@H]1c1ccc(F)cc1 + CC(C)NCC(C(=O)N1CCN(c2ncnc3c2C(C)CC3O)CC1)c1ccc(Cl)cc1
Result string: b1

Query string: Returns: class label. Input: CC1(C)CCC(CN2CCN(c3ccc(C(=O)NS(=O)(=O)c4ccc(NCC5CCOCC5)c([N+](=O)[O-])c4)c(Oc4cnc5[nH]ccc5c4)c3)CC2)=C(c2ccc(Cl)cc2)C1 + CC(C)NCC(C(=O)N1CCN(c2ncnc3c2C(C)CC3O)CC1)c1ccc(Cl)cc1
Result string: b2

Query string: Returns: class label. Input: CCCS(=O)(=O)Nc1ccc(F)c(C(=O)c2c[nH]c3ncc(-c4ccc(Cl)cc4)cc23)c1F + CC(C)NCC(C(=O)N1CCN(c2ncnc3c2C(C)CC3O)CC1)c1ccc(Cl)cc1
Result string: b1

Query string: Returns: class label. Input: CCCS(=O)(=O)Nc1ccc(F)c(C(=O)c2c[nH]c3ncc(-c4ccc(Cl)cc4)cc23)c1F + CCN1CCN(Cc2ccc(Nc3ncc(F)c(-c4cc(F)c5nc(C)n(C(C)C)c5c4)n3)nc2)CC1
Result string: b1

Query string: Returns: class label. Input: CC(C)n1nc(-c2ccc3oc(N)nc3c2)c2c(N)ncnc21 + CC(C)NCC(C(=O)N1CCN(c2ncnc3c2C(C)CC3O)CC1)c1ccc(Cl)cc1
Result string: b0

Query string: Returns: class label. Input: C=CCn1c(=O)c2cnc(Nc3ccc(N4CCN(C)CC4)cc3)nc2n1-c1cccc(C(C)(C)O)n1 + CC(C)NCC(C(=O)N1CCN(c2ncnc3c2C(C)CC3O)CC1)c1ccc(Cl)cc1
Result string: b2

Query string: Returns: class label. Input: COc1c(OCCCN2CCOCC2)ccc2c3n(c(=NC(=O)c4cnc(N)nc4)nc12)CCN3 + CC(C)NCC(C(=O)N1CCN(c2ncnc3c2C(C)CC3O)CC1)c1ccc(Cl)cc1
Result string: b0

Query string: Returns: class label. Input: Cn1nccc1Nc1nccc(-c2ccn(C(CO)c3ccc(Cl)c(F)c3)c(=O)c2)n1 (configuration not stated) + CCN1CCN(Cc2ccc(Nc3ncc(F)c(-c4cc(F)c5nc(C)n(C(C)C)c5c4)n3)nc2)CC1
Result string: b1

Sourced from PubChem BioAssay AID2060340
